System name: Histone deacetylase 4 (Homo sapiens)
Sequence (P56524 whole entry): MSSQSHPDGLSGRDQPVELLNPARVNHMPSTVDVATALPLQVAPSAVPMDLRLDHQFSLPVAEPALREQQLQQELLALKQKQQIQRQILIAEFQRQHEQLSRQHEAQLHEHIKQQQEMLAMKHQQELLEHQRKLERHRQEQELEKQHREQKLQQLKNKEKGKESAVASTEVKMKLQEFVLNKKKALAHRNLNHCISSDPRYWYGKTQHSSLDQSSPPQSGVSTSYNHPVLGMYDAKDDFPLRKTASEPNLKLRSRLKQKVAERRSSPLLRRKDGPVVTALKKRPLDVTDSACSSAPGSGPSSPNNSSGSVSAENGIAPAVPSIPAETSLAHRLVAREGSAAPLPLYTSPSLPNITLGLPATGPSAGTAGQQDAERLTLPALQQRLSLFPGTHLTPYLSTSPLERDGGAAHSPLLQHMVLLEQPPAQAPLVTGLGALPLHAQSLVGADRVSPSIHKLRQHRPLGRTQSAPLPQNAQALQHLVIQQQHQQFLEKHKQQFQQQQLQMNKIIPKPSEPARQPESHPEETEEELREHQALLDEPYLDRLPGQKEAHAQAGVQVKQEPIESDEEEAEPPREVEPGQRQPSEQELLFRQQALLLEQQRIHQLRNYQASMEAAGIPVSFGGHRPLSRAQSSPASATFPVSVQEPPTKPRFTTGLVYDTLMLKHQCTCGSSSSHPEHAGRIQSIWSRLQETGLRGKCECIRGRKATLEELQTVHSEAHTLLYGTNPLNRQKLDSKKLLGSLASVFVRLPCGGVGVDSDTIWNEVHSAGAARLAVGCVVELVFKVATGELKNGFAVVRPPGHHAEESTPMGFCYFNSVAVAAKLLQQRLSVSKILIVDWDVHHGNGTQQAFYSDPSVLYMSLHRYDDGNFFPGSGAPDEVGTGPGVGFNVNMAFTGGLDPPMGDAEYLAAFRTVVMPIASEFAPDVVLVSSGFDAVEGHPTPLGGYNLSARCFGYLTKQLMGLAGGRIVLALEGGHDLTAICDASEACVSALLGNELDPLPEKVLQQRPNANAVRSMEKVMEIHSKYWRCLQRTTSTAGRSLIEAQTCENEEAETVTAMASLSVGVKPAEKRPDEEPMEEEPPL
Protocol details: Inhibition of human HDAC4 in HeLa cells extract incubated for 5 mins followed by substrate addition and measured after 15 mins using Fluor-de-Lys as substrate by spectrofluorometric analysis

Smiles code: O=C1/C(=C/c2ccc(O)c(O)c2)Oc2cc(O)cc(O)c21
Ki [nM]: 800

----------
System name: Tyrosinase (Agaricus bisporus, UniProt O42713)
Sequence (O42713 whole entry): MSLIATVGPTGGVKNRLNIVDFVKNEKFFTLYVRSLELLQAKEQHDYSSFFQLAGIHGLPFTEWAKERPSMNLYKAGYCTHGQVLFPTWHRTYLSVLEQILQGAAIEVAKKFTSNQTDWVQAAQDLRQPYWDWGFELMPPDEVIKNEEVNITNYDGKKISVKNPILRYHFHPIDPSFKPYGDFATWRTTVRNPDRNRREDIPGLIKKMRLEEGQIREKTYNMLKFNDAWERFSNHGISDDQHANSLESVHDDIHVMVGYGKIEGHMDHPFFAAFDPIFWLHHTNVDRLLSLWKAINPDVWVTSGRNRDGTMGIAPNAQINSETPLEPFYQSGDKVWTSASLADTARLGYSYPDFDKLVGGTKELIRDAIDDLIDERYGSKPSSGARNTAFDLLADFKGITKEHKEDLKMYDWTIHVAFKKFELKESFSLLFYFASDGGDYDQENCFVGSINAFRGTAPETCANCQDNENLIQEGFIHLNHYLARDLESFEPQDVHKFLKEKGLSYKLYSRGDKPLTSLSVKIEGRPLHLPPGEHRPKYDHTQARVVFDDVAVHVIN
Protocol details: Inhibition of mushroom tyrosinase using L-DOPA as substrate preincubated for 10 mins followed by substrate addition and measured after 1 mins by spectrophotometric analysis
pIC50: −log10 of the molar value.

Smiles code: CN(C)c1ccc(/C=C2\Cc3ccccc3C2=O)c([N+](=O)[O-])c1
pIC50: 5.09

----------
Protocol details: Binding affinity to Helicobacter pylori HTRA by SPR analysis
pKd: −log10 of the molar value.
Quantity name: pKd

Smiles code: O=C(O)c1cc(-c2ccc(/C=C3\Sc4ccccc4C3=O)o2)ccc1Cl
Reported: 4.92

----------
Test system: PMNL
Protocol details: Anti-inflammatory activity in human polymorphonuclear neutrophils assessed as reduction in cell movement incubated for 24 hrs by fluorescence analysis
Assay type: functional, cell-based
pIC50: −log10 of the molar value.
Quantity name: pIC50

Smiles code: CCOC(OCC)c1ccc(/C=C2\Cc3ccccc3C2=O)cc1
Reported: 5.15

----------
Protocol details: Inhibition of Saccharomyces cerevisiae full-length ai5gamma intron self-splicing by fluorimetric assay
Ki overview

Smiles code: O=C1/C(=C/c2cc(O)c(O)c(O)c2)Oc2ccccc21
Scale unit: µM
Ki: 2.1
--
Smiles code: O=C1/C(=C/c2cc(O)c(O)c(O)c2)Oc2cc(O)cc(O)c21
Scale unit: µM
Ki: 5.8

----------
Protocol details: Selectivity index, ratio of IC50 for cytotoxicity against PMA differentiated human THP-1 cells to IC50 for antileishmanial activity against luciferase expressing axenic amastigote stage of Leishmania infantum MOM/MA671/TMAP263 infected in PMA differentiated human THP-1 macrophage cells
Assay type: toxicity, cell-based
Measurement parameters: PMA-differentiated THP-1 cells, read-out: Ratio IC50
Quantity name: selectivity ratio

Smiles code: COc1cc(OC)c2c(c1)O/C(=C\c1ccccc1OC)C2=O
Reported: 57.5

----------
Protocol details: Inhibition of equine serum BuChE using butyrylthiocholine iodide as substrate preincubated for 5 mins followed by substrate addition by spectrophotometric Ellman's method
pIC50: −log10 of the molar value.
Quantity name: pIC50

Smiles code: COc1ccc(NC(=O)Oc2cccc(/C=C3\Cc4cc(OC)c(OC)cc4C3=O)c2)cc1
Quantity name: pIC50
Reported: 6.51

----------
System name: Amyloid-beta precursor protein (Homo sapiens)
Protocol details: Inhibition of amyloid beta (1 to 42) (unknown origin) self aggregation by ThT-based fluorometric assay
pIC50: −log10 of the molar value.
Quantity name: pIC50

Smiles code: COc1cc2c(cc1OC)C(=O)/C(=C/c1ccc([N+](=O)[O-])cc1)C2
Quantity name: pIC50
Reported: 5.74

----------
System name: Tyrosinase (Agaricus bisporus, UniProt O42713)
Protocol details: Inhibition of Agaricus bisporus tyrosinase using L-DOPA as substrate incubated for 10 mins by spectrophotometric analysis
pIC50: −log10 of the molar value.
Quantity name: pIC50

Smiles code: O=C1/C(=C/c2ccc(O)cc2O)Oc2cccc(O)c21
Reported: 5.40

----------
Test system: Leishmania infantum
Protocol details: Antileishmanial activity against luciferase expressing […] amastigote stage of Leishmania infantum MOM/MA671/TMAP263 infected in PMA differentiated human THP-1 macrophage cells assessed as reduction in parasite growth incubated for 72 hrs by luminescence analysis
Format: functional, organism-based
Measurement parameters: MOM/MA671/TMAP263, THP-1, 72 h

Smiles code: COc1cc(OC)c2c(c1)O/C(=C\c1ccccc1OC)C2=O
Scale unit: nM
EC50: 1300

----------
System name: Amyloid-beta precursor protein (Homo sapiens)
Protocol details: Binding affinity to human brain homogenate amyloid beta by radioligand competition binding assay
Type: tissue-based
pKi: −log10 of the molar value.

Smiles code: CN(C)c1ccc(/C=C2\Cc3cc(I)ccc3C2=O)cc1
System name: Amyloid-beta precursor protein (Homo sapiens)
pKi: 7.00

----------
Protocol details: Cytotoxicity against mouse Peritoneal macrophage
Format: toxicity, cell-based
Measurement parameters: peritoneal macrophages

Smiles code: Cn1cc(/C=C2\Oc3ccccc3C2=O)c2ccccc21
CC50: > 150 µM

----------
System name: Acetylcholinesterase (Homo sapiens, UniProt P22303)
Sequence (P22303 whole entry): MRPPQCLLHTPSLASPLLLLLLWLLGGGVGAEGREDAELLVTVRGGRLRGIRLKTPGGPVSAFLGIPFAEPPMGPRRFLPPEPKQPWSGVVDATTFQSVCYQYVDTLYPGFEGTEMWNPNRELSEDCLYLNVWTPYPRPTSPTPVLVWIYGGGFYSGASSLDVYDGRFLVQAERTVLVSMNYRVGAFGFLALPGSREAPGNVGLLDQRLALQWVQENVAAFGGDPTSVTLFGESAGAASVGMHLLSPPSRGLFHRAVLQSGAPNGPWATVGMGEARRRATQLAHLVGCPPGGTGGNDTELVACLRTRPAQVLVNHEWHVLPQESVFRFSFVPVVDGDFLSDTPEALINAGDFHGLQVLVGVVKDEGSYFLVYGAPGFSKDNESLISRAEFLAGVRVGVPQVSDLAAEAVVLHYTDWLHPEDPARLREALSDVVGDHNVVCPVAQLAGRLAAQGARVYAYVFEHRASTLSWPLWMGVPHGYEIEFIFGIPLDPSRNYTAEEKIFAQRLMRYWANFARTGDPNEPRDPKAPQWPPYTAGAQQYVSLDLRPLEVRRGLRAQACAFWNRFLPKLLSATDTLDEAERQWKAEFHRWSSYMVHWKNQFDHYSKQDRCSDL
Protocol details: Inhibition of human AchE by Ellman's method
Quantity name: IC50 (nM)

Smiles code: COc1cc2c(cc1OC)C(=O)/C(=C/c1ccc(OCCN3CCCCC3)cc1)C2
Reported: 300

----------
System name: Retinoic acid receptor alpha (Homo sapiens, UniProt P10276)
Sequence (P10276 whole entry, the tested form may be a part): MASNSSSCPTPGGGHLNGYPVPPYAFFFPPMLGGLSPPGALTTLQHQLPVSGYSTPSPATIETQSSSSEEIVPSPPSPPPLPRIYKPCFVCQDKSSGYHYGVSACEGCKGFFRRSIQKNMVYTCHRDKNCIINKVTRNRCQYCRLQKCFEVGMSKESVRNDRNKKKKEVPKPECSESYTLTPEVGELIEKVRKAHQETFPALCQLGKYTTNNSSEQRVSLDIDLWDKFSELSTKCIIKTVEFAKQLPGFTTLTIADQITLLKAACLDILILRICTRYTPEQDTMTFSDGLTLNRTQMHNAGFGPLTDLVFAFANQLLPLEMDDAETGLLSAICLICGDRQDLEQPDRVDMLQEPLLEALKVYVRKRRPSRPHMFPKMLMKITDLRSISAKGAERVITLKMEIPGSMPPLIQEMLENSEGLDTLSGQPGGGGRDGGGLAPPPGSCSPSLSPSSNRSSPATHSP
Protocol details: Antagonist activity at Gal4-RARalpha transfected in HEK293 cells assessed as atRA-induced RARalpha transactivation and measured after 6 hrs by Dual-Light chemiluminiscence assay
Assay type: cell-based
pIC50: −log10 of the molar value.

Smiles code: COCCOCOc1cc2c(cc1C13CC4CC(CC(C4)C1)C3)C(=O)/C(=C/c1ccc(C(=O)O)cc1)O2
pIC50: 5.35

----------
System name: Amine oxidase [flavin-containing] B (Homo sapiens, UniProt P27338)
Sequence (P27338 whole entry): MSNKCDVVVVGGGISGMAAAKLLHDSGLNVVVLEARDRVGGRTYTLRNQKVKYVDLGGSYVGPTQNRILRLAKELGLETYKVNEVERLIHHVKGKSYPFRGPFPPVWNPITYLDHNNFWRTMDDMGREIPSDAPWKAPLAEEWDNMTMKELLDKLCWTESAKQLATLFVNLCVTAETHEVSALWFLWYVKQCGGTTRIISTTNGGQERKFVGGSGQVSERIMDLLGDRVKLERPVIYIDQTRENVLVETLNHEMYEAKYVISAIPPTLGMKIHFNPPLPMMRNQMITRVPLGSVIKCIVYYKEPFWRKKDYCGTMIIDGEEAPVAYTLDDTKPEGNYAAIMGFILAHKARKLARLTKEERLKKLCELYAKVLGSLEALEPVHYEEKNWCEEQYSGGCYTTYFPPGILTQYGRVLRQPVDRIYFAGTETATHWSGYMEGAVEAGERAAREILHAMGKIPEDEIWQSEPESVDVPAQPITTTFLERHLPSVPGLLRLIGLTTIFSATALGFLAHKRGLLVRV
Protocol details: Inhibition of recombinant human MAO-B

Smiles code: COc1cc2c(cc1OC)C(=O)/C(=C/c1ccc(N(C)C)cc1)C2
IC50, µM: 58
--
Smiles code: COc1cc2c(cc1OC)C(=O)/C(=C/c1ccc([N+](=O)[O-])cc1)C2
IC50, µM: 0.03

----------
System name: Amyloid-beta precursor protein (Homo sapiens, UniProt P05067)
Sequence (P05067 whole entry): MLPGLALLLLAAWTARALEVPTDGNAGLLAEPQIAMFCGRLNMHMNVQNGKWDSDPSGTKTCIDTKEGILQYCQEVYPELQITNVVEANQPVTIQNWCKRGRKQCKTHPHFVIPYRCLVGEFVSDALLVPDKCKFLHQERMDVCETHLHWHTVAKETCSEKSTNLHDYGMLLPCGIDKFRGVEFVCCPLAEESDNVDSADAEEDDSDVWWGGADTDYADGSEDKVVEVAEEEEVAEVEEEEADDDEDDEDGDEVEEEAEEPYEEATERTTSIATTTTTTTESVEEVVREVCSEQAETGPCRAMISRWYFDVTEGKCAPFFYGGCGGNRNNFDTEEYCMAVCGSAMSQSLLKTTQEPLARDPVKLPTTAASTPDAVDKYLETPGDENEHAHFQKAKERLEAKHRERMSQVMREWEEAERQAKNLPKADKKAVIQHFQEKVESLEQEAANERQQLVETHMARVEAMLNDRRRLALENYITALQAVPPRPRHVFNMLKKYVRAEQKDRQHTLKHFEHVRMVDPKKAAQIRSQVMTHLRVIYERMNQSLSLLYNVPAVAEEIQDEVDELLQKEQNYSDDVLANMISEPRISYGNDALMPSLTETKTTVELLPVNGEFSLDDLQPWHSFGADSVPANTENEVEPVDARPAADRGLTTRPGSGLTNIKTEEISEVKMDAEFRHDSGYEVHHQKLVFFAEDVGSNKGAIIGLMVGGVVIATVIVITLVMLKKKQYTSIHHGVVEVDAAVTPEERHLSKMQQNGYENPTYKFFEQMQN
Protocol details: Binding affinity to human brain amyloid-beta fibril

Smiles code: O=C1/C(=C/c2ccc(-c3ccc(CO)cc3)s2)Cc2ccccc21
Kd: 0.39 µM

----------
System name: Acetylcholinesterase (Electrophorus electricus, UniProt O42275)
Sequence (O42275 whole entry): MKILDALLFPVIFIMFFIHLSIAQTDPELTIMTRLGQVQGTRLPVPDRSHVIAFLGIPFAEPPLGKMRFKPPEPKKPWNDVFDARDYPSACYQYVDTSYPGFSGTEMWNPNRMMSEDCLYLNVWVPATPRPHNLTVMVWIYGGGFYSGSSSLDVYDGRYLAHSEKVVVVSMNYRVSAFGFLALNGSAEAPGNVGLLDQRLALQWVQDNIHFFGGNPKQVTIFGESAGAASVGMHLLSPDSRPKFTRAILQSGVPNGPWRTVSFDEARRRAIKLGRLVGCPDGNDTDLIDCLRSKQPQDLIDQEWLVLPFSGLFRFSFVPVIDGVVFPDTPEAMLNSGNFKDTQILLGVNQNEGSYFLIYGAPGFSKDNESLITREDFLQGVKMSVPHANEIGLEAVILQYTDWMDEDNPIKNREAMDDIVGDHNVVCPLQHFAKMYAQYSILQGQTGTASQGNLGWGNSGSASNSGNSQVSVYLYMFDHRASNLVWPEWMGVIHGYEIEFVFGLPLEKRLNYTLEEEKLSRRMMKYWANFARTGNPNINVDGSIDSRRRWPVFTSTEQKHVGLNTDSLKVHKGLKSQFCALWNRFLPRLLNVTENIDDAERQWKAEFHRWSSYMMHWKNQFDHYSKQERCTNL
pIC50: −log10 of the molar value.
Quantity name: pIC50

Smiles code: COc1ccc(NC(=O)Oc2cccc(/C=C3\Cc4cc(OC)c(OC)cc4C3=O)c2)cc1
Reported: 4.68

----------
Tested on: HeLa
Protocol details: Antiproliferative activity against human HeLa cells assessed as reduction in cell viability incubated for 48 hrs by MTT assay
Format: functional, cell-based

Smiles code: COc1ccc(/C=C2\Cc3c(cc(OC)c(OC)c3OC)C2=O)cc1O
Scale unit: nM
IC50: 170
//
Smiles code: COc1cc2c(c(OC)c1OC)C/C(=C\c1cccc3[nH]ccc13)C2=O
Scale unit: nM
IC50: 30

----------
Protocol details: Selectivity index, ratio of CC50 for cytotoxicity against human C8166 cells to EC50 for antiviral activity against HIV-1 infected in human C8166 cells
Type: toxicity, cell-based
Measurement parameters: read-out: Ratio CC50/EC50
Quantity name: selectivity ratio

Smiles code: COc1cc2c(cc1O)C(=O)/C(=C/c1ccc(C(C)=O)cc1)O2
Reported: 82

----------
System name: Amyloid-beta precursor protein (Homo sapiens, UniProt P05067)
Protocol details: Inhibition of self-induced amyloid beta (1 to 42) (unknown origin) disaggregation by ThT-based fluorometric assay
pIC50: −log10 of the molar value.
Quantity name: pIC50

Smiles code: COc1cc2c(cc1OC)C(=O)/C(=C/c1ccc([N+](=O)[O-])cc1)C2
System name: Amyloid-beta precursor protein (Homo sapiens, UniProt P05067)
Reported: 5.10

----------
System name: Histone deacetylase 7 (Homo sapiens, UniProt Q8WUI4)
Protocol details: Inhibition of human HDAC7 in HeLa cells extract incubated for 5 mins followed by substrate addition and measured after 15 mins using Fluor-de-Lys as substrate by spectrofluorometric analysis

Compound: O=C1/C(=C/c2ccc(O)c(O)c2)Oc2cc(O)cc(O)c21 [AUREUSIDIN]
Ki [µM]: 1.66

----------
Test system: HEK-293T
Protocol details: Cytotoxicity against human HEK293T cells assessed as reduction in cell viability incubated for 48 hrs by Alamar Blue assay
Assay type: functional, cell-based

Smiles code: O=C1/C(=C/c2cccc(-c3ccc(C(F)(F)F)cc3)c2)Nc2ccccc21
EC50: 810 nM
